Documented pKd across a set of molecules
target: p53-Y220C DBD (Homo sapiens, UniProt P04637, M133L/N239Y/N268D/V203A/Y220C); assay: Isothermal titration calorimetry; type: binding; settings: read-out: ITC KD; ¶ single measurement with ITC fit error; # mean of at least three independent measurements with SEM
Sequence (P04637 94-312, stated change not applied): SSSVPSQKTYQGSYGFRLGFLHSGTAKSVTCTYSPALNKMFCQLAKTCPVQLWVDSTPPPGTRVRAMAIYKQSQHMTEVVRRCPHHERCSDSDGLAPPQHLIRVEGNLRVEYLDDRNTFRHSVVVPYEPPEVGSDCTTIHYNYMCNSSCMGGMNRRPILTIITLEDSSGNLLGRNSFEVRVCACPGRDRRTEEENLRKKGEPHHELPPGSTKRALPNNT
Schema: pKd number; meaning minus log10 of the concentration expressed in molar units.

MOLECULE: CCn1c2ccc(CNC)cc2c2ccc(-c3ccoc3)cc21 [PK9321]
TEST READOUT: pKd
ASSAY VALUE: 5.25

Bench note, p53-Y220C DBD (Homo sapiens, UniProt P04637, M133L/N239Y/N268D/V203A/Y220C): entry CCn1c2ccc(CNC)cc2c2ccc(-c3cc(C)cs3)cc21 [PK9328] , its pKd = 5.77

// molecule CCn1c2ccc(CNC)cc2c2ccc(-c3ccco3)cc21 [PK9320] , assay p53-Y220C DBD (Homo sapiens, UniProt P04637, M133L/N239Y/N268D/V203A/Y220C), pKd value: 5.40

The molecule CCn1c2ccc(CNC)cc2c2ccc(Br)cc21 [PK9284] , when measured on p53-Y220C DBD (Homo sapiens, UniProt P04637, M133L/N239Y/N268D/V203A/Y220C), yielded pKd of 4.85
